Measured values drawn from ChEMBL document CHEMBL1158465 for this set.

Entries and their measured IC50 follow.
target: B2 bradykinin receptor (Homo sapiens); experiment: Antagonist activity at B2 receptor in human HF15 cells assessed as inhibition of bradykinin-induced calcium mobilization; assay type: functional, cell-based
Sequence (P30411 whole entry): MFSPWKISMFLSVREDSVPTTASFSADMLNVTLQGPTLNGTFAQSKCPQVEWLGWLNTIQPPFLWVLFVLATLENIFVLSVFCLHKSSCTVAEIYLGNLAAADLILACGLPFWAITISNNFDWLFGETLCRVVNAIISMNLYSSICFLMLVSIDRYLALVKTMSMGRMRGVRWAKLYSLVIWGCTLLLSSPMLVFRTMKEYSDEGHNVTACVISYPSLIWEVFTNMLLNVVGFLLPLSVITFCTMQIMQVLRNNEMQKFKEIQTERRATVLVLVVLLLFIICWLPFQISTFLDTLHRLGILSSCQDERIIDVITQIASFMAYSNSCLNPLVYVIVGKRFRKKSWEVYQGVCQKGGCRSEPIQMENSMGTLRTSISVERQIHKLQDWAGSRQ
parameter-measured: IC50 (nM)

>>> df
                                input_smiles  relation  numeric_value
 0  Cc1cc(-c2ccnn2C)c2cccc(OCc3c(Cl)cncc3CNC(=O)C(C)C)c2n1         =            2.3
 1  Cc1cc(-c2ncsc2Cl)c2cccc(OCc3c(Cl)cncc3Cl)c2n1         =            730
 2  Cc1cc(-c2scnc2Cl)c2cccc(OCc3c(Cl)cncc3Cl)c2n1         =           2500
 3  Cc1cc(-c2ccnn2C)c2cccc(OCc3c(Cl)cncc3Sc3nccn3C)c2n1         =             43
 4  Cc1cc(-c2ccnn2C)c2cccc(OCc3c(C)ccnc3CNC(=O)C3CCCCC3)c2n1         =            1.8
 5  Cc1cc(-c2ccnn2C)c2cccc(OCc3c(Cl)cncc3Sc3nccs3)c2n1         =             29
 6  Cc1cc(-n2ccnc2)c2cccc(OCc3c(Cl)cncc3Cl)c2n1         =           2500
 7  Cc1cc(-c2nccs2)c2cccc(OCc3c(Cl)cncc3Cl)c2n1         =            480
 8  Cc1cc(-c2ccnn2C)c2cccc(OCc3c(Cl)cncc3CCC(N)=O)c2n1         =            190
 9  Cc1cc(-c2scnc2C)c2cccc(OCc3c(Cl)cncc3Cl)c2n1         =             67
10  CC(=O)OCc1cncc(Cl)c1C(=O)c1cccc2c(-c3ccnn3C)cc(C)nc12         =            260
11  Cc1cc(-c2ccnn2C)c2cccc(OCc3ccncc3Cl)c2n1         =           1600
12  Cc1cc(-c2ccnn2C)c2cccc(OCc3c(Cl)cncc3COC(=O)N(C)C)c2n1         =             12
13  Cc1cc(-c2ncsc2Cl)c2cccc(OCc3c(C)ccnc3Cn3cccc(C(F)(F)F)c3=O)c2n1         =            1.3
14  Cc1cc(-c2[nH]ncc2C)c2cccc(OCc3c(C)ccnc3Cn3cccc(C(F)(F)F)c3=O)c2n1         =            1.1
15  Cc1cc(-c2ccnn2C)c2cccc(OCc3c(Cl)cncc3Cl)c2n1         =            180
16  Cc1cc(-c2ocnc2C)c2cccc(OCc3c(Cl)cncc3Cl)c2n1         >           5000
17  Cc1cc(-c2cscn2)c2cccc(OCc3c(Cl)cncc3Cl)c2n1         =            300
